# Tested on: SR leukemia
# ASSAY_REMARKS: NCI-60 one-dose screen, 48 h
# DETAILS: 10 µM unless noted
# Experimental: Growth inhibition of the SR human tumor cell line is measured as a screen for anti-cancer activity. Cells are grown in 96 well plates and exposed to the test compound for 48 hours. Compounds are tested at a single concentration, which is 10^-5 M for most compounds. The reported endpoint is percent growth (GI% or GIPRCNT), where numbers from 0 - 100% represent growth inhibition, and numbers from -100% - 0 represent cell death. For example, a value of 40 represents 60% growth inhibition. […]
Compounds without any hit were thinned out: in the full panel of roughly 83,000, 20% have a hit. Active and inactive are the calls of the source. Rule for the calls: active = growth percent below 10; inactive = the rest.
Outcomes you can answer with include only these: y = active, n = inactive

Recorded test outcome, item `c1ccc(CCn2nnc3c(Nc4ccc(N5CCOCC5)cc4)ncnc32)cc1`
n

Recorded test outcome, item `COc1cc(NC(=O)c2cc3ccccc3nc2Nc2ccc(F)cc2)cc(OC)c1OC`
n

Recorded test outcome, item N#CC1=C(N)n2nc(-c3ccncc3)nc2NC1c1cccc2ccccc12 (stereo not given)
n

---

Measured growth, listed per entry.
# System: 786-0 renal
# ASSAY_REMARKS: NCI-60 one-dose screen, 48 h (100 = growth as untreated, 0 = no growth, -100 = all killed)
# DETAILS: 10 µM unless noted
Compounds without any hit were thinned out: in the full panel of roughly 83,000, 20% have a hit. The source made the active and inactive calls. Rule for the calls: active = growth percent below 10; inactive = the rest.

Past entries and their recorded results:
| MOLECULE | QUANTITY | VALUE |
| --- | --- | --- |
| COc1ccc(C2=NN(c3ccc(S(N)(=O)=O)cc3)C(c3cn(-c4ccccc4)nc3-c3ccc(Cl)cc3)C2)cc1 (stereo not given) | growth | 105% (inactive) |
| COc1cc(CNC(=O)CCSc2nc3ccccc3c(=O)n2Cc2cc(OC)c(OC)c(OC)c2)cc(OC)c1OC | growth | 56.1% (inactive) |
| Nc1c(C(=O)Nc2ccccc2)sc2nc3c(cc12)CCCCC3 | growth | 15.7% (inactive) |
| COc1ccc([N+](=O)[O-])c(/C=C/C(=O)c2ccccn2)c1 | growth | 93.4% (inactive) |

Report growth for `O=C(Nc1ccc(F)cc1)c1cc([N+](=O)[O-])ccc1O` please.
80.2% (inactive)

Report growth for `CC(C)C[C@H](NC(=O)Cn1ccc(NCc2ccccc2)cc1=O)B(O)O` please.
20.6% (inactive)

Report growth for `O=[N+]([O-])c1cccc(-c2cc(-c3cc(Br)ccc3O)[nH]n2)c1` please.
27.2% (inactive)

Report growth for `CCN(CC)CCCNc1nc(C)cc(Nc2ccc3nc(C)cc(N)c3c2)n1` please.
97.8% (inactive)

Report growth for COc1c(NC[C@H]2OC(O)[C@H](O)[C@@H](O)[C@@H]2O)c(=O)c1=O (stereo not given in full) please.
102% (inactive)

Report growth for `COc1ccc(S(=O)(=O)N2CCN(c3cc4c(cc3F)c(=O)c(C(=O)O)cn4C3CC3)CC2)c(OC)c1` please.
91.5% (inactive)

Report growth for `O=S(=O)(NCCCNc1cc(-c2cn(-c3ccccc3)nc2-c2cccc(O)c2)ccn1)c1cccc(F)c1` please.
13.1% (inactive)

Report growth for `COc1ccc(-n2c(C)cc(-c3ccccc3)c2C)cc1` please.
35% (inactive)

Report growth for `O=C(NNC(=S)Nc1ccccc1)c1ccccn1` please.
22.6% (inactive)

Report growth for `COc1ccc(C(=O)c2cc(OC)c(OC)c(OC)c2)cc1/C=C/C(=O)c1ccc(O)cc1` please.
26.4% (inactive)
